experiment: Plasma pharmacokinetics, healthy subjects; format: in vivo, human; conditions: human; plasma prodrug; healthy subjects; 500 mg oral dose; geometric mean (CV%); n = 4; read-out: AUC(0–∞)
parameter: AUC(0-inf) (ng·h/mL)
Lab book: enter the figure in ng·h/mL, no units written.

Return reported AUC(0-inf); argument: CCOC(=O)OC[C@H]1O[C@@H](Oc2nn(C(C)C)c(C)c2Cc2ccc(OC(C)C)cc2)[C@H](O)[C@@H](O)[C@@H]1O [Remogliflozin etabonate, remogliflozin etabonate] 36.8

###

assay: Plasma pharmacokinetics, T2DM subjects; type: in vivo, human; conditions: human, plasma analyte, remogliflozin etabonate 50 mg oral dose, read-out: AUC(0–∞) Geometric mean (CV%)
// reported AUC(0-inf) for each item listed
Please state the number and follow it with the unit.

Return reported AUC(0-inf); argument: CCOC(=O)OC[C@H]1O[C@@H](Oc2nn(C(C)C)c(C)c2Cc2ccc(OC(C)C)cc2)[C@H](O)[C@@H](O)[C@@H]1O [Remogliflozin etabonate, remogliflozin etabonate] 8.91 ng·h/mL

Now consider Cc1[nH]nc(O[C@@H]2O[C@H](CO)[C@@H](O)[C@H](O)[C@H]2O)c1Cc1ccc(OC(C)C)cc1 . 130 ng·h/mL

Now consider Cc1c(Cc2ccc(OC(C)C)cc2)c(O[C@@H]2O[C@H](CO)[C@@H](O)[C@H](O)[C@H]2O)nn1C(C)C . 523 ng·h/mL

###

assay: Plasma pharmacokinetics, healthy subjects; format: in vivo, human; settings: human, plasma, po, 150 mg, plasma prodrug; healthy subjects; 150 mg oral dose; geometric mean (CV%); n = 6; read-out: T½ (converted)
parameter: half-life (min)
Lab book: enter the figure in min, no units written.

Return reported half-life; argument: CCOC(=O)OC[C@H]1O[C@@H](Oc2nn(C(C)C)c(C)c2Cc2ccc(OC(C)C)cc2)[C@H](O)[C@@H](O)[C@@H]1O [Remogliflozin etabonate, remogliflozin etabonate] 15.4

###

assay: Plasma pharmacokinetics, healthy subjects; format: in vivo, human; conditions: human; plasma analyte; healthy subjects; remogliflozin etabonate 20 mg oral dose; read-out: Cmax Geometric mean (CV%)
parameter: Cmax (ng/mL)
Lab book: enter the figure in ng/mL, no units written.

Cc1[nH]nc(O[C@@H]2O[C@H](CO)[C@@H](O)[C@H](O)[C@H]2O)c1Cc1ccc(OC(C)C)cc1    17.5

Return reported Cmax; argument: Cc1c(Cc2ccc(OC(C)C)cc2)c(O[C@@H]2O[C@H](CO)[C@@H](O)[C@H](O)[C@H]2O)nn1C(C)C 61
